Target: hGPR119 (Homo sapiens, UniProt Q8TDV5)
Construct: expressed in transfected cells; host or cells: CHO
Sequence (Q8TDV5 whole entry): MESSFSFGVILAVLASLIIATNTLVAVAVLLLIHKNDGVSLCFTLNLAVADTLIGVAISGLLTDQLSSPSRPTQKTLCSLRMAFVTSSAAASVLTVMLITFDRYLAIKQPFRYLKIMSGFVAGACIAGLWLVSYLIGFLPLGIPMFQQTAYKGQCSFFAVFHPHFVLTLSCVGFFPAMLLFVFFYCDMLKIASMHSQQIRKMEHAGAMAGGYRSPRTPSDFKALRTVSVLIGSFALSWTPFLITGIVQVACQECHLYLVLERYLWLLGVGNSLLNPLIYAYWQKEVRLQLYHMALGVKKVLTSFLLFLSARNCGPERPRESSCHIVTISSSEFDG
Test: In vitro cyclic AMP assay (Cisbio dynamic 2 HTRF kit) in CHO-hGPR119 cells
Format: cell-based
Settings: 1 h, cAMP, compound at 1 μM, 60 min, read-out: Induction (% induction at 1 μM)
Description: cAMP measurements were done using Cisbio dynamic 2 HTRF kit according to the manufacturer's protocol. Briefly, CHO-hGPR119 cells were plated at a cell density of 5000 cells/well/5 μl into a white small volume 384 well plate. The final concentrations of IBMX and DMSO used were 1 mM and 0.5% respectively. […] HTRF was measured at 337 nm excitation and emission wavelengths of 665 nm and 620 nm on a microplate reader (Flurostar, BMG Labtech). […]
// values below are reported activation at 1 µM
Note: unit % is implicit; provide only the numeric part.

The following compounds have reported results that may help.
- CC(C)c1noc(C2CCC(C(C)Oc3nc4ccc(-c5ccc(S(C)(=O)=O)cc5)nc4s3)CC2)n1 (stereo not shown): 13
- COCc1cnc(N2CCC([C@@H](C)Oc3nc4ccc(-c5ccc(S(C)(=O)=O)nc5)nc4s3)CC2)nc1: 70
- CCCc1cnc(N2CCC([C@H](C)Oc3nc4ccc(-c5ccncc5)nc4s3)CC2)nc1: 85

Kindly review the next compound as well.
Request the reported activation at 1 µM associated with CCCc1cnc(N2CCC([C@H](C)Oc3nc4ccc(-c5ccc(S(C)(=O)=O)nc5)nc4s3)CC2)nc1
81
